System: OVCAR-5 ovarian
protocol-notes: NCI-60 one-dose screen, 48 h
condition-context: 10 µM unless noted
The panel holds about 83,000 compounds, 20% with a hit somewhere; the sample as a whole holds those more often. The source made the active and inactive calls. How the source made its calls: active means growth percent below 10; inactive means the rest.
Give one outcome, nothing more. List: active, inactive

molecule	label-class
NC(=O)CC1C=CCC1 (stereo not given)	inactive
C=C(C)[C@@H]1CC[C@]2(C(=O)NCCCCCCN(CCCN)CCCN)CC[C@]3(C)[C@H](CC[C@@H]4[C@@]5(C)CC[C@H](OCCCN)C(C)(C)[C@@H]5CC[C@]43C)[C@@H]12	inactive
O=C(NNc1ccc(-c2ccccc2)nn1)c1ccccc1	inactive
O=C1/C(=C\c2cccn2Cc2ccccc2)c2ccccc2N1c1c(Cl)cccc1Cl	inactive

Turning now to a further molecule:
Asked: What was the test verdict on O=C(NCCCNC(=O)OCc1ccc2c(Br)cc(Br)c(O)c2n1)OCc1ccc2c(Br)cc(Br)c(O)c2n1 ?
Given back: active

---

System: CCRF-CEM leukemia
protocol-notes: NCI-60 one-dose screen, 48 h
condition-context: 10 µM unless noted
Description: Growth inhibition of the CCRF-CEM human tumor cell line is measured as a screen for anti-cancer activity. Cells are grown in 96 well plates and exposed to the test compound for 48 hours. Compounds are tested at a single concentration, which is 10^-5 M for most compounds. The reported endpoint is percent growth (GI% or GIPRCNT), where numbers from 0 - 100% represent growth inhibition, and numbers from -100% - 0 represent cell death. For example, a value of 40 represents 60% growth inhibition. […]
This is part of a sample that, as a whole, favours compounds with a hit. Of some 83,000 tested, about 20% had one in any assay. Activity calls are given as the source filed them. Rule for the calls: active = growth percent below 10; inactive = the rest.
Give one outcome, nothing more. List: t for active, f for inactive

compound	label-class
CCCOc1ccc(-c2nc(-c3ccc(N)cc3)cs2)cc1	f

Asked: What was the test verdict on CCN(CC)c1ccc2cc(C(Nc3ccc(Cl)cc3)c3nnnn3C(C)(C)C)c(=O)oc2c1 (centres undefined) ?
Given back: f

Asked: Query CC1(C)CC[C@]2(C(=O)O)CC[C@]3(C)C(=CC[C@@H]4[C@@]5(C)C/C(=C/c6cccnc6)[C@H](O)C(C)(C)[C@@H]5CC[C@]43C)[C@@H]2C1 next
Given back: t

Asked: Query CCN=C1C=CC(=C(c2ccc(N(CC)CC)cc2)c2ccc(N(CC)CC)cc2)c2ccccc21 next
Given back: t

Asked: Query O=C(N/N=C1\c2ccccc2-c2cccc(C(=O)O)c21)c1ccc(O)cc1 next
Given back: f

Asked: Query CC1Cc2c(ncnc2-n2cnc3ccccc32)N(C)c2ccccc21 (centres undefined) next
Given back: f

Asked: Query O=C(CCN1CCCCC1)c1ccc2ccccc2c1 next
Given back: f

Asked: Query CC(C)=CC/C=C(/C)[C@H]1CC[C@]2(C)[C@@H]1CC[C@@H]1[C@@]3(C)CCC(=O)NC(C)(C)[C@@H]3CC[C@]12C next
Given back: t

---

Tested on: MDA-MB-435 melanoma
protocol-notes: NCI-60 one-dose screen, 48 h
condition-context: 10 µM unless noted
This is part of a sample that, as a whole, favours compounds with a hit. Of some 83,000 tested, about 20% had one in any assay. Activity calls are given as the source filed them. The calls were made as follows: active = growth percent below 10; inactive = the rest.
Give one outcome, nothing more. List: t (active), f (inactive)

The examples below pair each entry with its known result.
compound	label-class
Cc1ccc(C2=C/C(=C/c3ccc(Br)cc3)C(=O)N2CCc2ccc(S(N)(=O)=O)cc2)cc1	f
CCN(CC)CCCC(C)Nc1ccnc2cc(Cl)c(SCc3ccccc3)cc12 (stereo not given)	t
CCOC(=O)C(=Cc1ccccc1[N+](=O)[O-])C(=O)OCC	f
O=C(CSc1nc2ccc([N+](=O)[O-])cc2[nH]1)Nc1cccc(Cl)c1	f
Cc1ccc(S(=O)(=O)NCCCNc2nccc(-c3c(-c4cccc(F)c4)nc4occn34)n2)cc1	f
CNC(=O)c1cc(Oc2cccc3nc(NC(=O)Nc4cc(C(F)(F)F)cc(C(F)(F)F)c4)ccc23)ccn1	f

Asked: What was the test verdict on c1ccc2c(c1)CN(CCCN1CCOCC1)C2 ?
Given back: f

Asked: Query Cn1c(=O)c(C#N)c(-c2ccco2)n2c(S(=O)(=O)Cc3ccccc3)nnc12 next
Given back: f

Asked: Query Nn1c(Nc2ccc(S(=O)(=O)Nc3ncccn3)cc2)nnc(/C=C/c2c(O)ccc3ccccc23)c1=O next
Given back: f

Asked: Query C=C(C)[C@@H]1CC[C@]2(C)[C@H](CC[C@@H]3[C@@H]([C@@](C)(O)CCC=C(C)C)CC[C@]32C)[C@@]1(C)CCC(=O)O next
Given back: t

Asked: Query COc1ccc2nc3cc(Cl)ccc3c(Nc3ccc(O)cc3)c2c1 next
Given back: f

Asked: Query CC1(C)OC2[C@@H](CNC(=O)NC(=O)NC(=O)CI)O[C@@H](n3cnc4c(NC(=O)Nc5ccccc5)ncnc43)[C@H]2O1 (stereo not given in full) next
Given back: f

Asked: Query CCNc1cc2c(cc1Br)-c1ccccc1C2=O next
Given back: f

Asked: Query CC(C)(C)c1cc(C(=O)N2CCC(C(=O)NCCN)CC2)cc(C(C)(C)C)c1 next
Given back: f

Asked: Query N#Cc1c(Cl)nc(SCC2CO2)nc1-c1ccccc1 (stereo not given) next
Given back: f

---

Test system: OVCAR-3 ovarian
protocol-notes: NCI-60 one-dose screen, 48 h
condition-context: 10 µM unless noted
This is part of a sample that, as a whole, favours compounds with a hit. Of some 83,000 tested, about 20% had one in any assay. The source made the active and inactive calls. The calls were made as follows: active = growth percent below 10; inactive = the rest.
Give one outcome, nothing more. List: active, inactive

Asked: What was the test verdict on O=C(O)CC1CCCCC1c1ccccc1 (centres undefined) ?
Given back: inactive

Asked: Query COc1ccc(NCc2cn(-c3ccc(C(=O)O)cc3)nc2-c2ccc(C(=O)O)cc2)cc1C(F)(F)F next
Given back: inactive

---

System: UACC-62 melanoma
protocol-notes: NCI-60 one-dose screen, 48 h
condition-context: 10 µM unless noted
About 83,000 compounds went through this panel and 20% of them were active in at least one assay; those are over-represented in the sample as a whole. Active and inactive are the calls of the source. How the source made its calls: active means growth percent below 10; inactive means the rest.
Give one outcome, nothing more. List: active, inactive

The examples below pair each entry with its known result.
compound	label-class
CCOC(=O)C1=C(C(=O)c2ccc(Br)cc2)C(c2ccc(Br)cc2)NC(=S)N1 (centres undefined)	inactive
O=C(Nc1ccc(CN2CCOCC2)c(C(F)(F)F)c1)c1nc2ccc3[nH]ncc3c2c2c1CCCC2	inactive
CC1(C)CC[C@]2(C(N)=O)CC[C@]3(C)C(=CC[C@@H]4[C@@]5(C)C/C(=C/c6ccncc6)C(=O)C(C)(C)[C@@H]5CC[C@]43C)[C@@H]2C1	active

Asked: What was the test verdict on Nc1cc(Cl)cc2cccnc12 ?
Given back: inactive

Asked: Query O=C(OCc1ccc2c(Cl)cc(Cl)c(O)c2n1)N1CCN(C(=O)c2cc3cc(F)ccc3[nH]2)CC1 next
Given back: inactive

Asked: Query C=CCc1nc2ccccc2s1 next
Given back: inactive

Asked: Query CC1(C)S[C@@H]2[C@H](NC(=O)[C@H](C(=O)O)c3cccs3)C(=O)N2[C@H]1C(=O)O next
Given back: inactive

Asked: Query Nc1nc(Nc2ccccc2)c2ncn(Cc3ccc4c(c3)OCO4)c2n1 next
Given back: inactive

Asked: Query CC(C)(C)OC(=O)N1C=C/C(=C\Cn2cc(-c3ccccc3)nn2)CC1 next
Given back: inactive

---

System: OVCAR-4 ovarian
protocol-notes: NCI-60 one-dose screen, 48 h (100 = growth as untreated, 0 = no growth, -100 = all killed)
condition-context: 10 µM
This is part of a sample that, as a whole, favours compounds with a hit. Of some 83,000 tested, about 20% had one in any assay. Calls of active or inactive are those of the source. How the source made its calls: active means growth percent below 10; inactive means the rest.
readout-label: growth

Guide cases for growth, answers given:
molecule	growth
Cc1ccc(C2=C/C(=C/c3ccc(Br)cc3)C(=O)N2CCc2ccc(S(N)(=O)=O)cc2)cc1	91.5% (inactive)
CCN(CC)CCSC(=O)C(O)(c1ccccc1)C1CCCC1 (stereo not given)	119% (inactive)
CN(C)C(=S)Sc1ccc([N+](=O)[O-])cc1[N+](=O)[O-]	20.8% (inactive)
CCCCCn1c(C)cc(/C=C\c2ccc3cc(C)ccc3[n+]2C)c1C	-8.22% (active)
COc1cc2c(cc1OCCCCCOc1ccc(-n3c(C)nc4ccccc4c3=O)cc1)N=C[C@@H]1CCCN1C2=O	-27.8% (active)

Asked: Reported growth for CCN=Cc1c(O)c(O)c(C(C)C)c2cc(C)c(-c3c(C)cc4c(C(C)C)c(O)c(O)c(C=NCC)c4c3O)c(O)c12 : what is it?
Given back: 31.7% (inactive)

Asked: Query NNC(=O)c1ccc(C(=O)NN)cc1 next
Given back: 127% (inactive)

Asked: Query Cn1cc(-c2noc(-c3cn(C)c4ncccc34)n2)c2cc(Cl)ccc21 next
Given back: 98.3% (inactive)

Asked: Query CCN(CC)CCCNCc1cc(-c2ccccc2)nc2ccccc12 next
Given back: 56.3% (inactive)

Asked: Query Cn1ncc2c(Nc3ccc(O)cc3)nc(Cl)nc21 next
Given back: 105% (inactive)
